Some compounds, each annotated with its measured pIC50.
# system.name: recombinant USP1/UAF1 enzyme complex (Homo sapiens, UniProt O94782)
# Sequence (O94782 whole entry): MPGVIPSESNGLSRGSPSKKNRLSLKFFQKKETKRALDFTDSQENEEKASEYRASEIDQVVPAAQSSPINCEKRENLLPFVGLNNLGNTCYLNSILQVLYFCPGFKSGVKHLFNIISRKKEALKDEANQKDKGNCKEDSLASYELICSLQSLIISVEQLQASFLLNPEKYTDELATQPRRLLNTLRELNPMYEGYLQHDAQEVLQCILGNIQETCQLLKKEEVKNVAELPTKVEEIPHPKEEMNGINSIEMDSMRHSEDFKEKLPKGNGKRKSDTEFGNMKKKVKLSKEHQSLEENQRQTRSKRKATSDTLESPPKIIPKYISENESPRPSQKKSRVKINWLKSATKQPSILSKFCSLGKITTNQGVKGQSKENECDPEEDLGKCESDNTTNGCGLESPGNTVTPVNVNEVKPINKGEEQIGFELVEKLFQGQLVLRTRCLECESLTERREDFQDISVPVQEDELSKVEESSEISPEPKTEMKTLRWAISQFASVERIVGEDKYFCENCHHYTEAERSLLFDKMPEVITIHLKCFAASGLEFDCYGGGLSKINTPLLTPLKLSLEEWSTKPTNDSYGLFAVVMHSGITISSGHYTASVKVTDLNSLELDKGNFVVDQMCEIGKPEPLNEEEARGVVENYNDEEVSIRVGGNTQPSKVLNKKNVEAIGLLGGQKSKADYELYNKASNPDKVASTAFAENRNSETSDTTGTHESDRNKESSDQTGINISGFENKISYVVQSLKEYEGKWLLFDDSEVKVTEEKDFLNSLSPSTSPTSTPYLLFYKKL
# Sequence (Q8TAF3 whole entry partner): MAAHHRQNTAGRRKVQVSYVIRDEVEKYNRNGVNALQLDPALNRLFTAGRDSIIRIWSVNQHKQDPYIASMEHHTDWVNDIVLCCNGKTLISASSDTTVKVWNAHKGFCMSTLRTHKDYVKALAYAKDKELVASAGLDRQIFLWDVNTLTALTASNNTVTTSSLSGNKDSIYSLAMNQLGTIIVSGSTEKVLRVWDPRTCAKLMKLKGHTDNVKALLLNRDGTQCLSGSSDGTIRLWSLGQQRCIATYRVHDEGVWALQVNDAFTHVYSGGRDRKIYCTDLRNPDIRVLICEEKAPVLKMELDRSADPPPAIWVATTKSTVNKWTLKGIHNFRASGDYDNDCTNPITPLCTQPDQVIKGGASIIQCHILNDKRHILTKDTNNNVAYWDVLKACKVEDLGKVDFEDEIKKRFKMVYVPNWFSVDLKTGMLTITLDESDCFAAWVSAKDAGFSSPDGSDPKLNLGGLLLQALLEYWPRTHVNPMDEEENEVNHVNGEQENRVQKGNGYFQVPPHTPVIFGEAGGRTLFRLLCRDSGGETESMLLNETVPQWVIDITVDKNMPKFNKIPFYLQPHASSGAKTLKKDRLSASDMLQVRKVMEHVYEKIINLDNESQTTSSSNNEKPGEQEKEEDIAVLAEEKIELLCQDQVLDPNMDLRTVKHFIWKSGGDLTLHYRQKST
# assay.explanation: Enzyme assay: deubiquitinase fluorometric assay with ubiquitin-Rhodamine substrate
# condition.label: USP1/UAF1, Ub-Rho110 substrate, 2 hours preincubation, 1 hour reaction
pIC50: −log10 of the molar value.

[[record]]
smiles_data = "COc1ncnc(C2CC2)c1-c1ncc2cc(C(C)(C)O)c(=O)n(Cc3ccc(-c4nc(C(F)(F)F)cn4C)cc3)c2n1"
result = "7.00 to 8.00"

[[record]]
smiles_data = "COc1ncnc(C2CC2)c1-c1ncc2ccc(=O)n(Cc3ccc(-c4nc(C(F)(F)F)cn4CCO)cc3)c2n1"
result = "7.00 to 8.00"

[[record]]
smiles_data = "COc1ncnc(C2CC2)c1-c1ncc2c(=O)n(C)c(=O)n(Cc3ccc(-c4nc(C(F)(F)F)cn4C(C)C)cc3)c2n1"
result = "7.00 to 8.00"


Note: attention shifts to another entry.
Identify measured pIC50 corresponding to "COc1ncnc(C)c1-c1ncc2ccc(=O)n(Cc3ccc(-c4nc(C(F)(F)F)cn4C)cc3)c2n1" 6.00 to 7.00

====

Items are presented alongside their recorded pIC50.
# system.name: recombinant USP1/UAF1 enzyme complex (Homo sapiens)
# assay.explanation: Enzyme assay: deubiquitinase fluorometric assay with ubiquitin-Rhodamine substrate
# condition.label: USP1/UAF1, Ub-Rho110 substrate, 2 hours preincubation, 1 hour reaction
pIC50: −log10 of the molar value.

Examples from the recorded data:
[[record]]
compound = "COc1ncnc(C2CC2)c1-c1ncc2ccc(=O)n(Cc3ccc(-c4cccc(C(F)(F)F)c4)cc3)c2n1 [Compound I-42]"
result = "6.00 to 7.00"

[[record]]
compound = "COc1ncnc(C2CC2)c1-c1ncc2ccc(=O)n(Cc3ccc(-c4nc(F)ccc4OC(C)C)cc3)c2n1 [Compound 76]"
result = "7.00 to 8.00"

[[record]]
compound = "COc1ncnc(C2CC2)c1-c1ncc2ccc(=O)n(Cc3ccc(-c4nc(C(F)(F)F)cn4CC(F)F)cc3)c2n1 [Compound 61]"
result = "7.00 to 8.00"


Tell me pIC50 of COc1ncnc(C2CC2)c1-c1ncc2ccc(=O)n(Cc3ccc(-c4nccc(C(F)(F)F)n4)cc3)c2n1 [Compound I-34] when tested on recombinant USP1/UAF1 enzyme complex (Homo sapiens). 6.00 to 7.00

Name the value of pIC50 reported for COc1ncnc(C2CC2)c1-c1ncc2ccc(=O)n(Cc3ccc(-c4ncccc4C)cc3)c2n1 [Compound 74] when tested on recombinant USP1/UAF1 enzyme complex (Homo sapiens). 7.00 to 8.00

State recorded pIC50 with recombinant USP1/UAF1 enzyme complex (Homo sapiens), entry CCn1cc(C(F)(F)F)nc1-c1ccc(Cn2c(=O)cnc3cnc(-c4c(OC)ncnc4C4CC4)nc32)cc1 [Compound I-28] , no comment. 7.00 to 8.00

====

Listing of recorded microsomal CLint at 1 μM by entry.
# assay.explanation: Liver microsomal stability (HLM)
# Type: in vitro ADME
# condition.label: human, liver microsomes, human liver microsomes 0.5 mg/mL, 1 μM compound, NADPH

Please review the following examples before continuing.
[[record]]
smiles_data = "COc1cc(Cn2c(=O)ccc3cnc(-c4c(OC)ncnc4OC)nc32)cc(F)c1-c1nc(C(F)(F)F)cn1C(C)C"
result = "10 to 50 µL/min/mg"

[[record]]
smiles_data = "COc1ncnc(C2CC2)c1-c1ncc2c(n1)N(Cc1ccc(-c3nc(C(F)(F)F)cn3C(C)C)cc1)C(=O)NC2"
result = "≥ 50 µL/min/mg"

[[record]]
smiles_data = "COc1ncnc(C2CC2)c1-c1nc(C)c2ccc(=O)n(Cc3ccc(-c4nc(C(F)(F)F)cn4C4CC4)cc3)c2n1"
result = "< 10 µL/min/mg"

[[record]]
smiles_data = "COc1ncnc(C2CC2)c1-c1ncc2ccc(=O)n(Cc3ccc(-c4nc(C(F)(F)F)cn4C(C)C)cc3)c2c1F"
result = "< 10 µL/min/mg"

[[record]]
smiles_data = "COc1ncnc(C2CC2)c1-c1ncc2cc(-c3cnn(C)c3)c(=O)n(Cc3ccc(-c4nc(C(F)(F)F)cn4C)cc3)c2n1"
result = "< 10 µL/min/mg"


Input "COc1cc(Cn2c(=O)cnc3cnc(-c4c(OC)ncnc4C4CC4)nc32)ccc1-c1nc(C(F)(F)F)cn1C(C)C" , output reported microsomal CLint at 1 μM. 10 to 50 µL/min/mg

Report microsomal CLint at 1 μM, nothing else, for this molecule: "COc1ncnc(C2CC2)c1-c1ncc2ncc(=O)n(Cc3ccc(-c4nc(C(F)(F)F)cn4C)cc3)c2n1" 10 to 50 µL/min/mg

Quick one: give measured microsomal CLint at 1 μM for "COc1ncnc(C2CC2)c1-c1ncc2cc(-c3c(C)noc3C)c(=O)n(Cc3ccc(-c4nc(C(F)(F)F)cn4C4CC4)cc3)c2n1" < 10 µL/min/mg

Fill in microsomal CLint at 1 μM for record "[2H]C([2H])([2H])Oc1ncnc(C2CC2)c1-c1ncc2ccc(=O)n(C([2H])([2H])c3ccc(-c4nc(C(F)(F)F)cn4C([2H])([2H])[2H])cc3)c2n1" 10 to 50 µL/min/mg

Return value of microsomal CLint at 1 μM for input "COc1ncnc(C2CC2)c1-c1ncc2ccc(=O)n(Cc3ccc(-c4nc(C(F)(F)F)cn4C(C)C)cc3)c2n1" , no commentary. < 10 µL/min/mg

Fill in reported microsomal CLint at 1 μM for this entry: "COc1ncnc(C2CC2)c1-c1ncc2c(n1)N(Cc1ccc(-c3nc(C(F)(F)F)cn3C(C)C)cc1)C(=O)N(C)C2" ≥ 50 µL/min/mg

Provide measured microsomal CLint at 1 μM value, entry: "COc1cc(Cn2c(=O)ccc3cnc(-c4c(OC)ncnc4C4CC4)nc32)cc(F)c1-c1nc(C(F)(F)F)cn1C(C)C" 10 to 50 µL/min/mg

Supply recorded microsomal CLint at 1 μM for "COc1ncnc(C2CC2)c1-c1ncc2ccc(=O)n(Cc3ccc(-n4nc(C(F)(F)F)cc4OC)cc3)c2n1" here. < 10 µL/min/mg

====

Reported GI50 values follow for various compounds
# Test system: MDA-MB-436 cells
# assay.explanation: CTG Protocol (MDA-MB-436 GI50), antiproliferative activity
# Format: cell-based, human
# condition.label: Homo sapiens, 168 h; MDA-MB-436 cells (BRCA1 mutation), 7-day incubation, CellTiter-Glo

Known GI50 results, listed for orientation:
[[record]]
compound = "COc1ncnc(C2CC2)c1-c1ncc2nc(-c3cn(C)cn3)c(=O)n(Cc3ccc(-c4nc(C(F)(F)F)cn4C4CC4)cc3)c2n1 [Compound I-160]"
result = "10 to 100 nM"

[[record]]
compound = "[2H]C([2H])([2H])Oc1ncnc(C2CC2)c1-c1ncc2ccc(=O)n(C([2H])([2H])c3ccc(-c4nc(C(F)(F)F)cn4C([2H])([2H])[2H])cc3)c2n1 [Compound 57]"
result = "< 10 nM"

[[record]]
compound = "COc1ncnc(C2CC2)c1-c1ncc2cc(CN3CCNCC3)c(=O)n(Cc3ccc(-c4nc(C(F)(F)F)cn4C)cc3)c2n1 [Compound 54]"
result = "10 to 100 nM"

[[record]]
compound = "COc1ncnc(C2CC2)c1-c1ncc2ccc(=O)n(Cc3ccc(-c4nc(C(F)(F)F)cn4C(C)C)cc3)c2c1F [Compound I-27]"
result = "10 to 100 nM"

[[record]]
compound = "COc1ncnc(C2CC2)c1-c1ncc2ccc(=O)n(Cc3ccc(-c4ncccc4N4CCN(C)CC4)cc3)c2n1 [Compound 85]"
result = "10 to 100 nM"


Please look at the following compound next.
Tell me GI50 of CC(C)n1ncc(Cl)c1-c1ncc2ccc(=O)n(Cc3ccc(-c4nc(C(F)(F)F)cn4C)cc3)c2n1 [Compound I-44] when tested on MDA-MB-436 cells. 10 to 100 nM

====

Below, each entry is listed alongside its reported pIC50.
# Tested on: HCC1806 Ub-PCNA (USP1)
# assay.explanation: USP1 Western Blot Protocol (HCC1806 Ub-PCNA)
# Assay type: cell-based
# condition.label: HCC1806 cells, 4 hours
pIC50: −log10 of the molar value.

[[record]]
compound = "COc1ncnc(C2CC2)c1-c1ncc2cc(CN(C)C)c(=O)n(Cc3ccc(-c4nc(C(F)(F)F)cn4C)cc3)c2n1 [Compound 56]"
system_name = "HCC1806 Ub-PCNA (USP1)"
measure = "pIC50"
result = "6.00 to 7.00"

[[record]]
compound = "COc1ncnc(C2CC2)c1-c1ncc2ccc(=O)n(C(C)c3ccc(-c4nc(C(F)(F)F)cn4C)cc3)c2n1 (centres unmarked) [Compound 63]"
system_name = "HCC1806 Ub-PCNA (USP1)"
measure = "pIC50"
result = "7.00 to 8.00"


Please list pIC50 recorded for the compound COc1ncnc(C2CC2)c1-c1ncc2cc(C(F)F)c(=O)n(Cc3ccc(-c4nc(C(F)(F)F)cn4C)cc3)c2n1 [Compound 77] 7.00 to 8.00

Identify measured pIC50 corresponding to COc1ncnc(C2CC2)c1-c1ncc2ccc(=O)n(C(C)c3ccc(-c4nc(C(F)(F)F)cn4C)cc3)c2n1 (centres unmarked) [Compound 62] 7.00 to 8.00

Quick one: give measured pIC50 for COc1ncnc(C2CC2)c1-c1ncc2cc(CN3CCN(C)CC3)c(=O)n(Cc3ccc(-c4nc(C(F)(F)F)cn4C)cc3)c2n1 [Compound 55] 7.00 to 8.00
